Assay: Mouse blood and tissue PK (LC/MS-MS)
Type: in vivo
Conditions: mouse, whole blood, oral, 25 mg/kg, Model Development Dataset; 25mg/kg_study8r (doses every 24 h, 0-[…]); 220 h
Procedure: For single-dose PKPD study, mice were randomized and assigned into groups (n = 3/dose/time point). […] Blood and tissues, including the tumor, brain, colon, ear skin, and muscle, were harvested at indicated time points. […] The whole blood, tumor, brain, colon, and ear skin concentrations of RMC-6236 were determined using liquid chromatography–tandem mass spectrometry (LC/MS-MS) methods. […] Concentrations reported as below the quantification limit were treated as zero for PK analysis. […]

| molecule | concentration at 220 h |
| --- | --- |
| CCn1c(-c2cc(N3CCN(C)CC3)cnc2[C@H](C)OC)c2c3cc(ccc31)-c1csc(n1)C[C@H](NC(=O)[C@H]1C[C@@H]1C)C(=O)N1CCC[C@H](N1)C(=O)OCC(C)(C)C2 [RMC-6236] | 849 nM |

Values were extracted from paper PMC11149917.
